- assay-remarks: chemical genetic growth profiling, strain panel (AID 1159580);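 further: tested at 20 µM; growth read once vehicle control cultures reached saturation at 30 °C; 1 = growth at the plate median or of vehicle wells; lower values mean less growth of the strain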
- study-conditions: S. cerevisiae deletion strains, growth OD, locus YCL011C, strain gbp2, active compounds read low
Out of some 5,500 compounds screened, about 2,000 (36%) were called active. About 18% were inconclusive and are not listed. Some of the results follow.
Form field: normalized growth (one value per entry).
property-measured: normalized growth

[[record]]
compound = "CCCCCCCC/C=C/CCCCCCCCOP(=O)([O-])OCC[N+](C)(C)C"
readout_number = 0.0519

[[record]]
compound = "CC1(C)C2CC[C@]3(C)C(C(=O)C=C4[C@@H]5C[C@@](C)(C(=O)O)CC[C@]5(C)CC[C@]43C)[C@@]2(C)CC[C@@H]1OC(=O)CCC(=O)O (some centres not stated)"
readout_number = 0.963

[[record]]
compound = "COc1c(O)cc2oc3cc(O)c(CC=C(C)C)c(O)c3c(=O)c2c1CC=C(C)C"
readout_number = 0.912

[[record]]
compound = "COC(=O)COc1cc(Cl)c(Cl)cc1Cl"
readout_number = 0.99

[[record]]
compound = "CC1(C)C2CC[C@]3(C)C(C(=O)C=C4[C@@H]5C[C@@](C)(C(=O)O)CC[C@]5(C)CC[C@]43C)[C@@]2(C)CC[C@@H]1O (some centres not stated)"
readout_number = 0.988

[[record]]
compound = "CCc1ccc(CCOc2ccc(CC3SC(=O)NC3=O)cc2)nc1 (configuration not stated)"
readout_number = 1

[[record]]
compound = "COC1C(O)C(O)C(O)[C@@H](O)C1O (some centres not stated)"
readout_number = 0.976

[[record]]
compound = "COc1ccc(C(=O)c2ccccc2O)c(O)c1"
readout_number = 0.876

[[record]]
compound = "Cc1cc(=O)c2c(O)cc(O)c(C)c2o1"
readout_number = 0.951

[[record]]
compound = "Cn1cc[nH]c1=S"
readout_number = 0.967

[[record]]
compound = "COc1cccc([C@]2(O)CCCC[C@H]2CN(C)C)c1"
readout_number = 0.972

[[record]]
compound = "CC1(C)C2CC[C@]3(C)C(C(=O)C=C4[C@H]5C[C@@](C)(C(=O)O)CC[C@]5(C)CC[C@]43C)[C@@]2(C)CC[C@@H]1O (some centres not stated)"
readout_number = 0.923

[[record]]
compound = "C[N+](C)(C)CCOP(=O)([O-])OP(=O)(O)OC[C@H]1OC(n2ccc(N)nc2=O)[C@H](O)[C@@H]1O (some centres not stated)"
readout_number = 0.998

[[record]]
compound = "COc1cc(O)c(C(=O)c2ccccc2)cc1O"
readout_number = 0.971

[[record]]
compound = "COc1ccc(-c2coc3c(O)c(OC)ccc3c2=O)cc1"
readout_number = 0.927

[[record]]
compound = "CCCCCCCCCCCCCCCCOP(=O)([O-])OCC[N+](C)(C)C"
readout_number = 0.0569

[[record]]
compound = "CC(C)(CO)C(O)C(=O)NCCCO (configuration not stated)"
readout_number = 1.02

[[record]]
compound = "C=CC1=C(C(=O)O)N2C(=O)[C@@H](NC(=O)/C(=N/O)c3csc(N)n3)[C@H]2SC1"
readout_number = 1.04

[[record]]
compound = "CN=C(NC#N)NCCSCc1nc(N=C(N)N)cs1"
readout_number = 0.966

[[record]]
compound = "O=c1ccc2cc(O)c(O)cc2o1"
readout_number = 1.03

[[record]]
compound = "Cc1cc(=O)c2c(O)c(C)c(O)cc2o1"
readout_number = 1.04

[[record]]
compound = "COc1ccc(C(=O)c2ccccc2)c(O)c1"
readout_number = 0.78

